# tested-on: T1, human CD3 epsilon (Acro Cat #CDE-H5223) (human, UniProt P07766 23-126)
# T1 construct: Bought recombinant protein; also called rhCD3E
# assay-explanation: SPR (Biacore), antibody captured, human CD3 epsilon analyte
readout-kind: koff (s⁻¹)
Please state the figure in s⁻¹; there is no need to write the unit.

Dear colleague, I am looking for the recorded koff of the following binder: SRP 2037-B10 Y55D/LC6 (antibody, human IgG1, kappa, V domains shown, human IgG1, kappa) VH: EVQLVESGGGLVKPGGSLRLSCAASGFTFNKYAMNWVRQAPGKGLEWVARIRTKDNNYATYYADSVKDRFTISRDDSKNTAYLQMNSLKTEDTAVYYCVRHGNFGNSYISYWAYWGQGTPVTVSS VL: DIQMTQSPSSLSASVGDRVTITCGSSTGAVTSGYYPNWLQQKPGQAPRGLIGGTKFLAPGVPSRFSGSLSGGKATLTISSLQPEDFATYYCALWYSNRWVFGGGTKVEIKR
0.000392

Dear colleague, I am looking for the recorded koff of the following binder: SRP 2037-B10 S107D/LC6 (antibody, human IgG1, kappa, V domains shown, human IgG1, kappa; also called 2037-B10 IgG S107D Lc6) VH: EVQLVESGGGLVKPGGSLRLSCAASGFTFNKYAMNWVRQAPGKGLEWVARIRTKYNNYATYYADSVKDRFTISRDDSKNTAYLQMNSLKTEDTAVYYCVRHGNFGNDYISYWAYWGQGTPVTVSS VL: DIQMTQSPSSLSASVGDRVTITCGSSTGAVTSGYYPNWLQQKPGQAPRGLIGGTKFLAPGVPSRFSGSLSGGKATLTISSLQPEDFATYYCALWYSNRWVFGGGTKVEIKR
0.000459

Dear colleague, I am looking for the recorded koff of the following binder: 2037-B10_Hc-Y55D (antibody, human IgG1, lambda, V domains shown, human IgG1, lambda; also called SRP 2037 Y55D; 2037-B10_VH-Y55D) VH: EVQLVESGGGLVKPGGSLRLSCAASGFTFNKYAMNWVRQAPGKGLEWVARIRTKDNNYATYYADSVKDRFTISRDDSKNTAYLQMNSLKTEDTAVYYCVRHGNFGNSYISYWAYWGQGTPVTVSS VL: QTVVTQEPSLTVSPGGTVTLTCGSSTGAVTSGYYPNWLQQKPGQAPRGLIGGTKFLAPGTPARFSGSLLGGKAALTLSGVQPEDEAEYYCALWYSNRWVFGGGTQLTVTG
0.000277
